Data origin: PubChem BioAssay (NCATS)

# assay-system: Cytochrome P450 3A7 (Homo sapiens)
# assay-explanation: Cytochrome P450 family 3 subfamily A member 7 (CYP3A7) small molecule antagonists: luciferase biochemical qHTS assay (AID 1963596); also: nearly all actives have a fitted effect of over 40% in size
# run-conditions: P450-Glo CYP3A7 enzyme luminescence, 1 h; series mostly up to 57.4 µM
Records with an inconclusive call do not appear. Calls of active or inactive are those of the source. Calls follow the shape of the dose curve; as a rule, active = well fitted inhibition curve with a large enough effect; inconclusive = small, poorly fitted or top-dose-only effect; inactive = no such curve, though single readings can be large or run the other way. Peptide text beside a SMILES is read from it.
Outcome codes: yes (1) = active, no (0) = inactive

# compound, class-assignment
data = [
    ("O=C(O)c1ccccc1Nc1cc(Cl)ccc1C(=O)O", "no (0)"),
    ("O=C(O)CNC(=O)c1ccccc1", "no (0)"),
    ("CCCn1c(=O)c2[nH]c(-c3cnn(Cc4cccc(C(F)(F)F)c4)c3)nc2n(CC)c1=O", "no (0)"),
    ("CC1(C)OC[C@@H](COC(=O)CCc2ccc(OC[C@@H](O)CNCCNC(=O)N3CCOCC3)cc2)O1", "no (0)"),
    ("O=C(O)/C=C/c1ccc(Cn2ccnc2)cc1", "no (0)"),
    ("C[N+]12CCC(CC1)C(OC(=O)C(O)(c1ccccc1)c1ccccc1)C2 (stereo not drawn)", "no (0)"),
    ("O=C(O)Cc1csc(-c2ccc(Cl)cc2)n1", "no (0)"),
    ("Cc1cccc(C(=O)O)c1O", "no (0)"),
    ("CC1(C#N)CCN(c2c(C(=O)N3CCN(S(C)(=O)=O)CC3)cnc3cc(F)c(F)cc23)CC1", "yes (1)"),
    ("Cc1nc(NC(=O)N2CCC[C@H]2C(N)=O)sc1-c1ccnc(C(C)(C)C(F)(F)F)c1", "no (0)"),
    ("O=C(NC[C@H](O)CN1CCc2ccccc2C1)c1cc(NC2COC2)ncn1", "no (0)"),
    ("Cc1cc(OCCCS(C)(=O)=O)cc(C)c1-c1cccc(COc2ccc3c(c2)OCC3CC(=O)O)c1 (stereo not drawn)", "no (0)"),
    ("COC(=O)[C@H](Cc1ccccc1)NC(=O)[C@@H](N)CC(=O)O (H-Asp-Phe-OMe)", "no (0)"),
    ("NC(=O)N[C@@H](CCC(=O)O)C(=O)O", "no (0)"),
    ("CC(=O)NC[C@H]1CN(c2ccc(N3CCN(C(=O)CO)CC3)c(F)c2)C(=O)O1", "no (0)"),
    ("CC(=O)N1CCN(NC(=O)c2ccc(F)cc2)CC1", "no (0)"),
    ("O=C(O)Cc1ccc(-c2ccccc2)cc1", "no (0)"),
    ("COc1ccc(-c2cnc(-c3cccc4c3-c3ccccc3C4=O)o2)cc1", "no (0)"),
    ("CCOC(=O)N1CCC(N2CCC[C@@H](NC(=O)c3ccccc3C)C2)CC1", "no (0)"),
    ("COc1nc(C)nc(Cl)c1NC1=NCCN1", "no (0)"),
    ("O=C(O)CCNC(=O)c1ccccc1", "no (0)"),
    ("O=C(O)c1ccc(S(=O)(=O)N(Cl)Cl)cc1", "no (0)"),
    ("C[N+](C)(C)CCOC(N)=O", "no (0)"),
]
